Cited source for all entries: paper PMC10397247

- target_or_system: T1, 4H2503-bH
- T1 chain: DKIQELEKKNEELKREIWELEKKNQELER
- assay_comment: two-hybrid library CCNG1;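 further: natural log of median RNA to DNA barcode read ratio; higher means stronger binding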
Threshold check on interaction score: at or above 0.03 gives true (1), strictly below gives false (0).

Reported interaction score at or above 0.03? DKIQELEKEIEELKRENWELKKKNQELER [4H2143-bH]
false (0)

Please tell me: is the binder DKIQELEKKNEELEREIWELEKKIQELKR [4H2438-bH] at or over 0.03 in terms of interaction score?
true (1)

Dear colleague, could you confirm whether DEIQELEKENEELERKNWELEKKIQELKR [4H182-bH] has interaction score at or above 0.03?
false (0)

Could you tell me if the measured interaction score of DKIQELEKENEELERKIWELKKKNQELER [4H2223-bH] reaches 0.03 or more?
true (1)

For this binder, is measured interaction score 0.03 or higher? DKIQELEKEIEELKRENWELEKKIQELKR [4H2134-bH]
true (1)

Is it the case that DEIQELEKEIEELKRKNWELKKEIQELER [4H121-bH] has interaction score reaching or exceeding 0.03?
false (0)

Please tell me: is the binder DKIQELEKKNEELERKIWELKKEIQELER [4H2473-bH] at or over 0.03 in terms of interaction score?
true (1)
